Consider the following compounds; for each one, report its post-emergence efficacy ALOMY.
- Test system: Alopecurus myosuroides
- testDetails: Post-emergence herbicidal effect
- Format: in vivo
- conditionsUsed: 80 g/ha, assessed visually after about 3 weeks vs untreated controls
Give bare numbers, in %.

compound="Cc1cc2c(s1)C(Nc1ncc(C(F)(F)F)c(N)n1)CCC2 (racemic)" assayreadout="post-emergence efficacy ALOMY" unittag=% reportedresult=90
compound=Nc1nc(N[C@@H]2CCCc3sccc32)ncc1C(F)(F)F assayreadout="post-emergence efficacy ALOMY" unittag=% reportedresult=90
compound="Cc1cc2c(s1)CCCC2Nc1ncc(C(F)(F)F)c(N)n1 (racemic)" assayreadout="post-emergence efficacy ALOMY" unittag=% reportedresult=70

### Prompt Can you look up the measured post-emergence efficacy ALOMY of Cc1cc2c(s1)CCCC2Nc1ncc(C#N)c(N)n1 (stereo not shown) for me?
### Response 100
